Cited source: paper PMC5700166

Target: GST-Nv-NF-kB (Ser allele) (Nematostella vectensis, UniProt A7UNT2 2-411)
Sequence: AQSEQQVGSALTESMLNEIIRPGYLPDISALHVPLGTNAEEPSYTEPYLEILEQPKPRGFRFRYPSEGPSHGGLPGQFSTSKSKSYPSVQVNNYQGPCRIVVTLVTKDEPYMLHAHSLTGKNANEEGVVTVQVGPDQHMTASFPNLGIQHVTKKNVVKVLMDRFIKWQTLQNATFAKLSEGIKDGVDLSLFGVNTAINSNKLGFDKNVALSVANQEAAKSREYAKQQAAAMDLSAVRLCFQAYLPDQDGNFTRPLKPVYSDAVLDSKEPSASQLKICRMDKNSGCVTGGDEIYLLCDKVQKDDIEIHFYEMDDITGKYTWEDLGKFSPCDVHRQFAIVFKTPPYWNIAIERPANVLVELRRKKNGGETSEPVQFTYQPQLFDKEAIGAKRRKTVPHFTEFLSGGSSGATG
Assay: protein-binding microarray (PBM); PBM: ~300 nM protein, 6 mM HEPES pH 7.8, 80 mM KCl, 0.5 mM EDTA, 0.5 mM EGTA, 6% glycerol, 35 ng/ul poly-dIdC, 1% milk, 1 h, room temperature; Ap Aiptasia and Nv Nematostella (sea anemones) / Co Capsaspora / Aq Amphimedon (sponge) / Dm Drosophila / Hu human; RHD is the Rel homology domain; high values mean tight binding
Conditions: dsDNA, one strand shown
recorded_metric: binding signal (z-score)
Give just the numeric value; z-score need not be written.

// below: answered sequences
- CCGATTAACATCAGGGGGGGACCTGATGTTAATCGGGTCTTGATTCGCTTGACGCTGCTG: 3.87
- CCGATTAACATCAAAGCATTCCCTGATGTTAATCGGGTCTTGATTCGCTTGACGCTGCTG: 2.52

So what does the record say about binding signal for CCGATTAACATCAGGAGTCTCCCTGATGTTAATCGGGTCTTGATTCGCTTGACGCTGCTG ?
1.4

Now consider CCGATTAACATCAGGGACCGCCCTGATGTTAATCGGGTCTTGATTCGCTTGACGCTGCTG .
1.35

Proceed to CCGATTAACATCAACACTCCCCCTGATGTTAATCGGGTCTTGATTCGCTTGACGCTGCTG
5.61

Try the sequence CCGATTAACATCACATATACCCCTGATGTTAATCGGGTCTTGATTCGCTTGACGCTGCTG
1.38
